The reported measurements were obtained from patent US20200121803A1.

For each record, write down the corresponding ADC potency, IC50 (nM), H2170 (NSCLC) growth inhibition.
Molecular target: T1, human CD98 on the cell surface (human)
T1 chain: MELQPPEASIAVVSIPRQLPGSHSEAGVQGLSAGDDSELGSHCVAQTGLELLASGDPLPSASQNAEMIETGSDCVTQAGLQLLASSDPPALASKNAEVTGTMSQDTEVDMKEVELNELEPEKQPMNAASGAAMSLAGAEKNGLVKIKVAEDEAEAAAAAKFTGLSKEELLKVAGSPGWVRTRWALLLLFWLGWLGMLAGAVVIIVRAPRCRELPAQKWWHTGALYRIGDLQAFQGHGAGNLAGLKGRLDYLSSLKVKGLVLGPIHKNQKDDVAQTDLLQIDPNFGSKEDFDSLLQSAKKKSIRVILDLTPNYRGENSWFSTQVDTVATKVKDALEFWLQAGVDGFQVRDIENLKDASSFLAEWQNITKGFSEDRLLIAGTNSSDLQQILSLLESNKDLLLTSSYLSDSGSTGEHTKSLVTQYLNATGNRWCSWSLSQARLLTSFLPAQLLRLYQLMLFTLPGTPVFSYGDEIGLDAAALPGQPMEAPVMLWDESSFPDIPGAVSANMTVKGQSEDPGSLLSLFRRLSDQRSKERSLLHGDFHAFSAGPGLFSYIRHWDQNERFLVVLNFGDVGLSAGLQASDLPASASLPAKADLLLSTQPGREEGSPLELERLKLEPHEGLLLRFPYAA
Assay: cell-based or functional assay
Give bare numbers, in nM.

binder	readout.value
ChAb12-CZ (other, synthon CZ on reduced interchain Cys of the constant regions (sites not numbered)) VH: EVQLVESGGGLVQPGRSLKLSCAASGFTFSDYAMAWVRQAPKKGLEWVASIIYDGRGTYYRDSVKGRFTISRDNAKSTLYLQMDSLRSEDTATYYCARQGDGTYYYWGSFDYWGQGVMVTVSS VL: DIVMTQSPSSLAVSAGETVTINCKSSQSLLSSGNQKNYLAWYQQKPGQSPKLLIYWASTRQSGVPDRFIGSGSGTDFTLTISSVQAEDLAIYHCQQYYDTPYTFGAGTKLELK	0.118

We now examine a further binder.
# get_value(readout='ADC potency, IC50 (nM), H2170 (NSCLC) growth inhibition', item= ChAb11-CZ (other, synthon CZ on reduced interchain Cys of the constant regions (sites not numbered)) VH: EVQLVESGGGLVQPGRSLKLSCAASGFTFSDYAMAWVRQAPKKGLEWVAGIIYDGRGTYYRDSVKGRFTISRDNAKSTLYLQMDSLRSEDTATYYCARQGDGTYYYWGYFDYWGQGVMVTVSS VL: DIVMTQSPSSLAVSAGETVTINCRSSQSLLSSGNQKNYLAWYQQKPGQSPKLLIYWASTRQSGVPDRFIGSGSGTDFTLTISSVQAEDLAIYYCQQYYDTPYTFGAGTKLELK )
0.195
